Numbers sourced from patent US20260209346A1.

Target: T1, human CD79b recombinant protein (human, UniProt P40259 29-159)
T1 construct: also called human CD79b ECD antigen; recombinant human CD79b ECD
T1 sequence: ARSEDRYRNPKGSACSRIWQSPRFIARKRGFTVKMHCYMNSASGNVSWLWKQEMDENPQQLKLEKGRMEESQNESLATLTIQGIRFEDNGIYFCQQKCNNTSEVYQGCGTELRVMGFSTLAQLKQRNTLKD
Assay: ELISA, coated human CD79b recombinant protein
Would you mind telling me the reported IC50 of each entry?
Output spec: scalar in nM, unitless text.

# query: IC50 of entry ch23D8 (antibody, human IgG1, kappa, V domains shown, Rabbit/human chimeric IgG1 kappa; also called chimeric 23D8) VH: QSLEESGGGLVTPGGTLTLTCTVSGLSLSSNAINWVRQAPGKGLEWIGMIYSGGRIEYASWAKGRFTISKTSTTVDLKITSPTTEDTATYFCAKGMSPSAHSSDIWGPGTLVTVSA VL: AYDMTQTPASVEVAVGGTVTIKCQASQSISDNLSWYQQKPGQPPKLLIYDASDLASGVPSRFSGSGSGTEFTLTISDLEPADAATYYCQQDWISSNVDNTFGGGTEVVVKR 0.33

# query: IC50 of entry ch22D10 (antibody, human IgG1, kappa, V domains shown, Rabbit/human chimeric IgG1 kappa; also called chimeric 22D10) VH: QSVEESGGRLVTPGTPLTLTCTASGFTINDYHMNWVRQAPGKGLEWIGIISSNGDTYYASWAKGRFTISRTSTTVDLKMTSLTTEDTATYFCARDDRDRSYAFDPWGPGTLVTVSS VL: ALVMTQTPSSVSAAVGGTVTINCRASEDIERYLAWYQQKPGQRPKLLIYGASTLASGVPSRFKGSGSGTEYTLTISGVQPDDAATYYCHQGDSSRNVVNVFGGGTEVVVKR 0.22

# query: IC50 of entry ch29C3 (antibody, human IgG1, kappa, V domains shown, Rabbit/human chimeric IgG1 kappa; also called chimeric 29C3) VH: QSVKESGGGLFKPTDTLTLTCTVSGIDLNNYAMNWVRQAPGKGLDWIGLIGASGSTYYADWAKGRFTISKTSTTVDLKMTSLTTEDTATYFCAIGISATAHTSNIWGPGTLVAVSL VL: ALVMTQTPSSVSAAVGGTVTINCQASQNIDSNLAWYQQKPGQPPKLLIYDASALASGVPSRFKGSGSGTEYTLTISGVEPDDAATYYCQQDDSSSNVDNPFGGGTEVVVKR 0.17
